Target: T1, CRBN, Q96SW2;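 also: pooled lentiviral library of zinc finger degron-EGFP fusions in mCherry-positive Jurkat cells, FACS-sorted after compound exposure, with degron abundance counted by next-generation sequencing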
T1 chain: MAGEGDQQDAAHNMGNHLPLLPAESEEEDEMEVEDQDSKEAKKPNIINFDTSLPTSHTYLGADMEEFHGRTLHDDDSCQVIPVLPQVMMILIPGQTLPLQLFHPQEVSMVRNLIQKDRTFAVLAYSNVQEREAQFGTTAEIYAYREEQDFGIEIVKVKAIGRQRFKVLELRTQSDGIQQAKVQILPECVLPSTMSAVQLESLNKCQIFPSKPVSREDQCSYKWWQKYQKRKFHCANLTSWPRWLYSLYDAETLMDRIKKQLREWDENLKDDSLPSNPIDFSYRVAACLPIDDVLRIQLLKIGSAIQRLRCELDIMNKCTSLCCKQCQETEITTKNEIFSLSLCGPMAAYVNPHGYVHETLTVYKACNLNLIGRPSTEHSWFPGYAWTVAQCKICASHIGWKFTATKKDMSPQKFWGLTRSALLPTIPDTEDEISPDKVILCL
Assay: log2 fold change of degron read counts, EGFP-low vs EGFP+ sorted cells (limma voom), compound-induced degradation; higher = more compound-induced degradation of the degron-EGFP fusion; degrons are variants of IKZF1/3 zinc finger 2; compound dose not given here
Details: Jurkat; 18 h; compound: thalidomide
Whole data set: some 8,300 sequences, median “log2 fold change of degron read counts, EGFP-low vs EGFP+ sorted cells (limma voom), compound-induced degradation” near -1.1, cut for the highest 2% near 3.2. Shown is part of a subset that was picked to be rich in the highest values.
Rule: fulfilled for log2 fold change of degron read counts not less than 1, not fulfilled for anything less.

> print(dat)
                            monomer.sequence  discrete.label
 1  FMCPICGATFTQKGNLLRHIKL [46F_47M_49P_50I_52G_53A_54T_55F_67L_, Q9UKT9]       fulfilled
 2  LCCNQCGFNCTQKGNLLRHIKL [46L_47C_49N_50Q_52G_53F_54N_55C_67L_, Q9UKT9]   not fulfilled
 3  LYCEICGFCCTQKGNLLRHIKL [46L_47Y_49E_50I_52G_53F_54C_55C_67L_, Q9UKT9]       fulfilled
 4  FICEICGRCFTQKGNLLRHIKL [46F_47I_49E_50I_52G_53R_54C_55F_67L_, Q9UKT9]   not fulfilled
 5  FNCEICGAFFTQKGNLLRHIKL [46F_47N_49E_50I_52G_53A_54F_55F_67L_, Q9UKT9]   not fulfilled
 6  FGCDVCGAEFTQKGNLLRHIKL [46F_47G_49D_50V_52G_53A_54E_55F_67L_, Q9UKT9]   not fulfilled
 7  LHCEICGFSCTQKGNLLRHIKL [46L_47H_49E_50I_52G_53F_54S_55C_67L_, Q9UKT9]       fulfilled
 8  FICEICGRFFTQKGNLLRHIKL [46F_47I_49E_50I_52G_53R_54F_55F_67L_, Q9UKT9]   not fulfilled
 9  LCCEICGFCCTQKGNLLRHIKL [46L_47C_49E_50I_52G_53F_54C_55C_67L_, Q9UKT9]       fulfilled
10  FACPICGATFTQKGNLLRHIKL [46F_47A_49P_50I_52G_53A_54T_55F_67L_, Q9UKT9]   not fulfilled
11  FSCPICGATFTQKGNLLRHIKL [46F_47S_49P_50I_52G_53A_54T_55F_67L_, Q9UKT9]       fulfilled
12  FKCPICGATFTQKGNLLRHIKL [46F_47K_49P_50I_52G_53A_54T_55F_67L_, Q9UKT9]   not fulfilled
13  LECEICGFSCTQKGNLLRHIKL [46L_47E_49E_50I_52G_53F_54S_55C_67L_, Q9UKT9]       fulfilled
14  FQCPICGATFTQKGNLLRHIKL [46F_47Q_49P_50I_52G_53A_54T_55F_67L_, Q9UKT9]       fulfilled
15  LDCEICGFCCTQKGNLLRHIKL [46L_47D_49E_50I_52G_53F_54C_55C_67L_, Q9UKT9]   not fulfilled
16  LACEICGFSCTQKGNLLRHIKL [46L_47A_49E_50I_52G_53F_54S_55C_67L_, Q9UKT9]       fulfilled
17  FTCEQCGATFTQKGNLLRHIKL [46F_47T_49E_50Q_52G_53A_54T_55F_67L_, Q9UKT9]   not fulfilled
18  LWCEICGFCCTQKGNLLRHIKL [46L_47W_49E_50I_52G_53F_54C_55C_67L_, Q9UKT9]   not fulfilled
19  FHCNQCGHNFTQKGNLLRHIKL [46F_47H_49N_50Q_52G_53H_54N_55F_67L_, Q9UKT9]   not fulfilled
20  LRCEICGFSCTQKGNLLRHIKL [46L_47R_49E_50I_52G_53F_54S_55C_67L_, Q9UKT9]       fulfilled
21  FGCNICGALFTQKGNLLRHIKL [46F_47G_49N_50I_52G_53A_54L_55F_67L_, Q9UKT9]   not fulfilled
22  FICPICGATFTQKGNLLRHIKL [46F_47I_49P_50I_52G_53A_54T_55F_67L_, Q9UKT9]       fulfilled
23  FWCEQCGANFTQKGNLLRHIKL [46F_47W_49E_50Q_52G_53A_54N_55F_67L_, Q9UKT9]   not fulfilled
24  FDCPICGAEFTQKGNLLRHIKL [46F_47D_49P_50I_52G_53A_54E_55F_67L_, Q9UKT9]   not fulfilled
